experiment: XTT cell viability assay, non-cancerous cardiac fibroblasts (CF); format: cell-based, rat; details: primary cardiac fibroblasts (CF); primary non-cancerous rat cardiac fibroblasts, XTT assay; read-out: CF lethal concentration
Non-standard residues stand in square brackets, D forms with d. Residues, ends and D or L forms follow the SMILES beside them. *: point of attachment. Lauroyl = CCCCCCCCCCCC(=O)*; Aoc = NCCCCCCCC(=O)O

[
  {
    "compound": "CCCCCCCCCCCC(=O)N[C@@H](CCCCN)C(=O)NCCCCCCCC(=O)N[C@@H](CCCCN)C(=O)N[C@@H](CCCCN)C(=O)NCCCCCCCC(=O)N[C@@H](CCCCN)C(=O)N[C@@H](CCCCN)C(=O)NCCCCCCCC(=O)N[C@@H](CCCCN)C(N)=O [C12(KNC8K)3NH2] (Lauroyl-K[Aoc]KK[Aoc]KK[Aoc]K-NH2)",
    "CC50 at 24 h": "< 16 µM"
  },
  {
    "compound": "NCCCC[C@H](NC(=O)CCCCCCCCCCCNC(=O)[C@@H](N)CCCCN)C(=O)O [KNC12K]",
    "CC50 at 24 h": "> 16 µM"
  },
  {
    "compound": "NCCCC[C@H](NC(=O)CCCCCCCCCCCNC(=O)[C@H](CCCCN)NC(=O)CCCCCCCCCCCNC(=O)[C@H](CCCCN)NC(=O)CCCCCCCCCCCNC(=O)[C@H](CCCCN)NC(=O)CCCCCCCCCCCNC(=O)[C@H](CCCCN)NC(=O)CCCCCCCCCCCNC(=O)[C@H](CCCCN)NC(=O)CCCCCCCCCCCNC(=O)[C@@H](N)CCCCN)C(N)=O [K(NC12K)6NH2]",
    "CC50 at 24 h": "> 16 µM"
  },
  {
    "compound": "NCCCC[C@H](NC(=O)CCCCCCCCCCCNC(=O)[C@H](CCCCN)NC(=O)CCCCCCCCCCCNC(=O)[C@H](CCCCN)NC(=O)CCCCCCCCCCCNC(=O)[C@H](CCCCN)NC(=O)CCCCCCCCCCCNC(=O)[C@@H](N)CCCCN)C(N)=O [K(NC12K)4NH2]",
    "CC50 at 24 h": "50 µM"
  }
]

====

tested on: N-417 cell line; test: XTT cell viability assay, N-417 cells; assay type: cell-based; conditions: 24 hours incubation, XTT; read-out: Cancer LC50 Human small-cell lung carcinoma N-417
Non-standard residues stand in square brackets, D forms with d. Residues, ends and D or L forms follow the SMILES beside them. *: point of attachment. 12Ado = NCCCCCCCCCCCC(=O)O; Octanoyl = CCCCCCCC(=O)*
CC50 values for the compounds below.
observedProperty: CC50 (µM)

[
  {
    "compound": "NCCCCCCCCCCCC(=O)N[C@@H](CCCCN)C(=O)N[C@@H](CCCCN)C(=O)NCCCCCCCCCCCC(=O)N[C@@H](CCCCN)C(=O)N[C@@H](CCCCN)C(=O)NCCCCCCCCCCCC(=O)N[C@@H](CCCCN)C(=O)N[C@@H](CCCCN)C(=O)NCCCCCCCCCCCC(=O)N[C@@H](CCCCN)C(N)=O (H-[12Ado]KK[12Ado]KK[12Ado]KK[12Ado]K-NH2)",
    "observedProperty": "CC50",
    "qualifyingSign": "=",
    "assayValue": 10
  },
  {
    "compound": "NCCCC[C@H](NC(=O)CCCCCCCCCCCNC(=O)[C@H](CCCCN)NC(=O)[C@H](CCCCN)NC(=O)CCCCCCCCCCCNC(=O)[C@H](CCCCN)NC(=O)[C@H](CCCCN)NC(=O)CCCCCCCCCCCNC(=O)[C@H](CCCCN)NC(=O)[C@@H](N)CCCCN)C(N)=O [K(KNC12K)3NH2] (H-KK[12Ado]KK[12Ado]KK[12Ado]K-NH2)",
    "observedProperty": "CC50",
    "qualifyingSign": ">",
    "assayValue": 16
  },
  {
    "compound": "CCCCCCCC(=O)N[C@@H](CCCCN)C(=O)NCCCCCCCCCCCC(=O)N[C@@H](CCCCN)C(=O)N[C@@H](CCCCN)C(=O)NCCCCCCCCCCCC(=O)N[C@@H](CCCCN)C(=O)N[C@@H](CCCCN)C(=O)NCCCCCCCCCCCC(=O)N[C@@H](CCCCN)C(N)=O [C8(KNC12K)3NH2] (Octanoyl-K[12Ado]KK[12Ado]KK[12Ado]K-NH2)",
    "observedProperty": "CC50",
    "qualifyingSign": "=",
    "assayValue": 9
  }
]

====

assay: XTT cell viability assay, non-cancerous cardiac fibroblasts (CF); format: cell-based, rat; details: rat, primary non-cancerous cardiac fibroblasts (CF), dose-dependent plots, FIGS. 4a-b, 6a; read-out: LC50 against non-cancerous CF cells
Non-standard residues stand in square brackets, D forms with d. Residues, ends and D or L forms follow the SMILES beside them. *: point of attachment. Lauroyl = CCCCCCCCCCCC(=O)*; 12Ado = NCCCCCCCCCCCC(=O)O

[
  {
    "compound": "CCCCCCCCCCCC(=O)N[C@@H](CCCCN)C(=O)NCCCCCCCCCCCC(=O)N[C@@H](CCCCN)C(=O)N[C@@H](CCCCN)C(=O)NCCCCCCCCCCCC(=O)N[C@@H](CCCCN)C(=O)N[C@@H](CCCCN)C(=O)NCCCCCCCCCCCC(=O)N[C@@H](CCCCN)C(N)=O (Lauroyl-K[12Ado]KK[12Ado]KK[12Ado]K-NH2)",
    "CC50 at 24 h, µM": 38
  }
]

====

assay: in vitro; conditions: human, red blood cells
Non-standard residues stand in square brackets, D forms with d. Residues, ends and D or L forms follow the SMILES beside them. *: point of attachment. Lauroyl = CCCCCCCCCCCC(=O)*; 12Ado = NCCCCCCCCCCCC(=O)O; Octanoyl = CCCCCCCC(=O)*
HC50 at 3 h values for the compounds below.
observedProperty: HC50 at 3 h

[
  {
    "compound": "NCCCC[C@H](NC(=O)CCCCCCCCCCCNC(=O)[C@H](CCCCN)NC(=O)[C@H](CCCCN)NC(=O)CCCCCCCCCCCNC(=O)[C@@H](N)CCCCN)C(N)=O [(KNC12K)2NH2] (HELM PEPTIDE1{K.[O=C(CCCCCCCCCCCN[*:1])[*:2]].K.K.[O=C(CCCCCCCCCCCN[*:1])[*:2]].K.[am]}$$$$V2.0)",
    "assayValue": "> 100 µM"
  },
  {
    "compound": "NCCCCCCCCCCCC(=O)N[C@@H](CCCCN)C(=O)NCCCCCCCCCCCC(=O)N[C@@H](CCCCN)C(=O)N[C@@H](CCCCN)C(=O)NCCCCCCCCCCCC(=O)N[C@@H](CCCCN)C(=O)N[C@@H](CCCCN)C(=O)NCCCCCCCCCCCC(=O)N[C@@H](CCCCN)C(N)=O [NC12(KNC12K)3NH2] (H-[12Ado]K[12Ado]KK[12Ado]KK[12Ado]K-NH2)",
    "assayValue": "> 100 µM"
  },
  {
    "compound": "CCCCCCCC(=O)N[C@@H](CCCCN)C(=O)NCCCCCCCCCCCC(=O)N[C@@H](CCCCN)C(=O)N[C@@H](CCCCN)C(=O)NCCCCCCCCCCCC(=O)N[C@@H](CCCCN)C(=O)N[C@@H](CCCCN)C(=O)NCCCCCCCCCCCC(=O)N[C@@H](CCCCN)C(N)=O [C8(KNC12K)3NH2] (Octanoyl-K[12Ado]KK[12Ado]KK[12Ado]K-NH2)",
    "assayValue": "51 µM"
  },
  {
    "compound": "NCCCC[C@@H]1NC(=O)CCCCCCCCCCCNC(=O)[C@H](CCCCN)NC(=O)[C@H](CCCCN)NC(=O)CCCCCCCCCCCNC1=O [Cyclic-NC12KKNC12K] (HELM PEPTIDE1{[O=C(CCCCCCCCCCCN[*:1])[*:2]].K.[O=C(CCCCCCCCCCCN[*:1])[*:2]].K.K}$PEPTIDE1,PEPTIDE1,1:R1-5:R2$$$V2.0)",
    "assayValue": "> 100 µM"
  },
  {
    "compound": "NCCCCCCCCCCCC(=O)N[C@@H](CCCCN)C(=O)N[C@@H](CCCCN)C(=O)NCCCCCCCCCCCC(=O)N[C@@H](CCCCN)C(=O)N[C@@H](CCCCN)C(=O)NCCCCCCCCCCCC(=O)N[C@@H](CCCCN)C(=O)N[C@@H](CCCCN)C(=O)NCCCCCCCCCCCC(=O)N[C@@H](CCCCN)C(N)=O (H-[12Ado]KK[12Ado]KK[12Ado]KK[12Ado]K-NH2)",
    "assayValue": "> 100 µM"
  },
  {
    "compound": "CCCCCCCCCCCC(=O)N[C@@H](CCCCN)C(=O)NCCCCCCCCCCCC(=O)N[C@@H](CCCCN)C(=O)N[C@@H](CCCCN)C(=O)NCCCCCCCCCCCC(=O)N[C@@H](CCCCN)C(N)=O [C12(KNC12K)2NH2] (Lauroyl-K[12Ado]KK[12Ado]K-NH2)",
    "assayValue": "17 µM"
  },
  {
    "compound": "CCCCCCCC(=O)N[C@@H](CCCCN)C(=O)N[C@@H](CCCCN)C(=O)NCCCCCCCCCCCC(=O)N[C@@H](CCCCN)C(=O)N[C@@H](CCCCN)C(=O)NCCCCCCCCCCCC(=O)N[C@@H](CCCCN)C(=O)N[C@@H](CCCCN)C(=O)NCCCCCCCCCCCC(=O)N[C@@H](CCCCN)C(N)=O [C8K(KNC12K)3NH2] (Octanoyl-KK[12Ado]KK[12Ado]KK[12Ado]K-NH2)",
    "assayValue": "> 100 µM"
  },
  {
    "compound": "NCCCC[C@H](NC(=O)CCCCCCCCCCCNC(=O)[C@H](CCCCN)NC(=O)[C@H](CCCCN)NC(=O)CCCCCCCCCCCNC(=O)[C@H](CCCCN)NC(=O)[C@H](CCCCN)NC(=O)CCCCCCCCCCCNC(=O)[C@@H](N)CCCCN)C(N)=O [(KNC12K)3NH2] (H-K[12Ado]KK[12Ado]KK[12Ado]K-NH2)",
    "assayValue": "> 100 µM"
  },
  {
    "compound": "CCCCCCCCCCCC(=O)N[C@@H](CCCCN)C(=O)N[C@@H](CCCCN)C(=O)NCCCCCCCCCCCC(=O)N[C@@H](CCCCN)C(=O)N[C@@H](CCCCN)C(=O)NCCCCCCCCCCCC(=O)N[C@@H](CCCCN)C(=O)N[C@@H](CCCCN)C(=O)NCCCCCCCCCCCC(=O)N[C@@H](CCCCN)C(N)=O (Lauroyl-KK[12Ado]KK[12Ado]KK[12Ado]K-NH2)",
    "assayValue": "10 µM"
  },
  {
    "compound": "NCCCC[C@@H]1NC(=O)CCCCCCCCCCCNC(=O)[C@H](CCCCN)NC(=O)[C@H](CCCCN)NC(=O)CCCCCCCCCCCNC(=O)[C@H](CCCCN)NC1=O [Cyclic-(KNC12K)2] (HELM PEPTIDE1{[O=C(CCCCCCCCCCCN[*:1])[*:2]].K.K.[O=C(CCCCCCCCCCCN[*:1])[*:2]].K.K}$PEPTIDE1,PEPTIDE1,1:R1-6:R2$$$V2.0)",
    "assayValue": "> 100 µM"
  },
  {
    "compound": "NCCCC[C@H](NC(=O)CCCCCCCCCCCNC(=O)[C@H](CCCCN)NC(=O)[C@H](CCCCN)NC(=O)CCCCCCCCCCCNC(=O)[C@H](CCCCN)NC(=O)[C@H](CCCCN)NC(=O)CCCCCCCCCCCNC(=O)[C@H](CCCCN)NC(=O)[C@@H](N)CCCCN)C(N)=O [K(KNC12K)3NH2] (H-KK[12Ado]KK[12Ado]KK[12Ado]K-NH2)",
    "assayValue": "> 100 µM"
  },
  {
    "compound": "CCCCCCCCCCCC(=O)N[C@@H](CCCCN)C(=O)NCCCCCCCCCCCC(=O)N[C@@H](CCCCN)C(=O)N[C@@H](CCCCN)C(=O)NCCCCCCCCCCCC(=O)N[C@@H](CCCCN)C(=O)N[C@@H](CCCCN)C(=O)NCCCCCCCCCCCC(=O)N[C@@H](CCCCN)C(N)=O (Lauroyl-K[12Ado]KK[12Ado]KK[12Ado]K-NH2)",
    "assayValue": "10 µM"
  }
]

These data points were gathered from patent US20100173832A1.
